- system_under_test: T. b. brucei MTA phosphorylase (Trypanosoma brucei)
- Construct: MTA or analogs as substrates
- method_summary: T. b. brucei MTA phosphorylase substrate assay
- Type: biochemical
- condition: +50 mM PO4, 200 μM substrate, relative to MTA
Assign class by Percent Control Activity: not lower than 80% means Condition met; lower than 80% means Condition not met.

# example entries with known answers
INSERT INTO measurements (compound, answer_label) VALUES
  ('Nc1ncnc2c1ncn2[C@@H]1O[C@H](CSCCF)[C@@H](O)[C@H]1O', 'Condition not met'),
  ('CCSC[C@H]1O[C@@H](n2cnc3c(N)ncnc32)[C@H](O)[C@@H]1O [ETA, reference compound]', 'Condition not met'),
  ('Nc1ncnc2c1ncn2[C@@H]1O[C@H](CSCCCO)[C@@H](O)[C@H]1O', 'Condition not met'),
  ('Nc1ncnc2c1ncn2[C@@H]1O[C@H](CSCCBr)[C@@H](O)[C@H]1O', 'Condition met');

Field: next compound
Query: I'd appreciate it if you could say whether Nc1ncnc2c1ncn2[C@@H]1O[C@H](CSCCCF)[C@@H](O)[C@H]1O [MFPTA, reference compound] has Percent Control Activity at least equal to 80%.
Result: Condition not met

====

Below, each entry is listed with its recorded IC50.
- System: MOLT-4 cells (MTA phosphorylase-containing)
- method_summary: Growth inhibition of MOLT-4 cells
- Assay type: cell-based, human
- condition: Homo sapiens, MOLT-4, 96 h
Field: numeric (µM). Do not append units.

Completed entries (count: 5):
INSERT INTO measurements (molecule, numeric_value) VALUES
  ('Nc1ncnc2c1ncn2[C@@H]1O[C@H](CSCCO)[C@@H](O)[C@H]1O [HETA, 5''-deoxy-5''-(hydroxyethylthio)adenosine]', 40),
  ('CCCSC[C@H]1O[C@@H](n2cnc3c(N)ncnc32)[C@H](O)[C@@H]1O [PTA, reference compound]', 45),
  ('Nc1ncnc2c1ncn2[C@@H]1O[C@H](CSCCCF)[C@@H](O)[C@H]1O [MFPTA, reference compound]', 25),
  ('CCSC[C@H]1O[C@@H](n2cnc3c(N)ncnc32)[C@H](O)[C@@H]1O [ETA, reference compound]', 20),
  ('Nc1ncnc2c1ncn2[C@@H]1O[C@H](CSCCF)[C@@H](O)[C@H]1O [MFETA]', 10);

Query: Entry under review: CSC[C@H]1O[C@@H](n2cnc3c(N)ncnc32)[C@H](O)[C@@H]1O [MTA, 5'-deoxy-5'-methylthioadenosine, reference compound] . Reported IC50?
Result: 11

====

- Test system: LOX (human melanoma)
- method_summary: In vitro evaluation, LOX
- Assay type: cell-based
- condition: medium B, 72 hours
measurement_name: pIC50
Field pIC50 (float): negative decimal logarithm of the concentration in molar.

Query: Look at this compound and give its reported pIC50. Nc1ncnc2c1ncn2[C@@H]1O[C@H](CSCCF)[C@@H](O)[C@H]1O [MFETA]
Result: 3.57

====

Percent Control Activity by entry:
- system_under_test: T. b. brucei MTA phosphorylase (Trypanosoma brucei, UniProt Q57XS4)
- Construct: MTA or analogs as substrates
- Sequence (Q57XS4 entry or part of it): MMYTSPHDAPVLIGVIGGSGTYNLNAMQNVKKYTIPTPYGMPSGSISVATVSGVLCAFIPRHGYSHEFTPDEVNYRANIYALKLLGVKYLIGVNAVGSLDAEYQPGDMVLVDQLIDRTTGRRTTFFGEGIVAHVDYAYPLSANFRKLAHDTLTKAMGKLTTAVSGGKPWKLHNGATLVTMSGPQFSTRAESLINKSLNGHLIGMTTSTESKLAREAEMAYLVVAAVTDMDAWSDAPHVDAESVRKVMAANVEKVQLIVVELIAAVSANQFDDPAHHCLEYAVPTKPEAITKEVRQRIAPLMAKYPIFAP
- method_summary: T. b. brucei MTA phosphorylase substrate assay
- Format: biochemical
- condition: +50 mM PO4, 200 μM substrate, relative to MTA
Give just the number in %; leave the unit off.

Look over these answered cases.
INSERT INTO measurements (compound, uom, numeric_value) VALUES
  ('CSC[C@H]1O[C@@H](n2cnc3c(N)ncnc32)[C@H](O)[C@@H]1O [MTA, 5''-deoxy-5''-methylthioadenosine, reference compound]', '%', 100),
  ('CCCSC[C@H]1O[C@@H](n2cnc3c(N)ncnc32)[C@H](O)[C@@H]1O [PTA, reference compound]', '%', 57.5),
  ('Nc1ncnc2c1ncn2[C@@H]1O[C@H](CSCCO)[C@@H](O)[C@H]1O [HETA, 5''-deoxy-5''-(hydroxyethylthio)adenosine]', '%', 85);

Now consider a different compound.
Query: Form field: reported Percent Control Activity of Nc1ncnc2c1ncn2[C@@H]1O[C@H](CSCCCl)[C@@H](O)[C@H]1O
Result: 60
